These measurements were taken from ChEMBL document CHEMBL1201862.

Measured IC50 values are reported for all entries that follow.
Test system: H9c2;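 further: cell death induced by hydrogen peroxide oxidative stress; compound pretreatment for 60 min then peroxide exposure for 2 h; potency is for protecting the cells against peroxide damage rather than for killing them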;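 further: confirmatory concentration-response retest of ultra-high-throughput screening hits for modulation of myocardial damage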
Assay: cells
Assay type: functional, cell-based
Conditions: Rattus norvegicus, H9c2, Myocardium
Activity calls are given as the source filed them.
measure: IC50

given smiles	measure	experimental value
Cc1nc(N2CCN(S(=O)(=O)c3cccc4nonc34)CC2)c2c3c(sc2n1)CCCC3	IC50	> 79 µM (inactive)
O=C(OCC(=O)N1CCc2ccccc21)c1nnc(O)c2ccccc12	IC50	12.3 µM (active)
CCOC(=O)C1CCN(c2cc3c(cc2NC(=O)c2ccc(F)cc2)n(C)c(=O)n3C)CC1	IC50	16.7 µM (active)
O=C(CCc1nc(O)c2ccccc2n1)Nc1ccc(F)c([N+](=O)[O-])c1	IC50	> 79 µM (inactive)
O=C(NCc1ccc2c(c1)OCO2)c1nnc(O)c2ccccc12	IC50	> 79 µM (inactive)
Cc1ccc(-c2nnc(O)c3ccccc23)cc1S(=O)(=O)Nc1ccccc1	IC50	21.3 µM (active)

* * *

Target: Fatty acid synthase (Homo sapiens)
Sequence (P49327 whole entry, the tested form may be a part): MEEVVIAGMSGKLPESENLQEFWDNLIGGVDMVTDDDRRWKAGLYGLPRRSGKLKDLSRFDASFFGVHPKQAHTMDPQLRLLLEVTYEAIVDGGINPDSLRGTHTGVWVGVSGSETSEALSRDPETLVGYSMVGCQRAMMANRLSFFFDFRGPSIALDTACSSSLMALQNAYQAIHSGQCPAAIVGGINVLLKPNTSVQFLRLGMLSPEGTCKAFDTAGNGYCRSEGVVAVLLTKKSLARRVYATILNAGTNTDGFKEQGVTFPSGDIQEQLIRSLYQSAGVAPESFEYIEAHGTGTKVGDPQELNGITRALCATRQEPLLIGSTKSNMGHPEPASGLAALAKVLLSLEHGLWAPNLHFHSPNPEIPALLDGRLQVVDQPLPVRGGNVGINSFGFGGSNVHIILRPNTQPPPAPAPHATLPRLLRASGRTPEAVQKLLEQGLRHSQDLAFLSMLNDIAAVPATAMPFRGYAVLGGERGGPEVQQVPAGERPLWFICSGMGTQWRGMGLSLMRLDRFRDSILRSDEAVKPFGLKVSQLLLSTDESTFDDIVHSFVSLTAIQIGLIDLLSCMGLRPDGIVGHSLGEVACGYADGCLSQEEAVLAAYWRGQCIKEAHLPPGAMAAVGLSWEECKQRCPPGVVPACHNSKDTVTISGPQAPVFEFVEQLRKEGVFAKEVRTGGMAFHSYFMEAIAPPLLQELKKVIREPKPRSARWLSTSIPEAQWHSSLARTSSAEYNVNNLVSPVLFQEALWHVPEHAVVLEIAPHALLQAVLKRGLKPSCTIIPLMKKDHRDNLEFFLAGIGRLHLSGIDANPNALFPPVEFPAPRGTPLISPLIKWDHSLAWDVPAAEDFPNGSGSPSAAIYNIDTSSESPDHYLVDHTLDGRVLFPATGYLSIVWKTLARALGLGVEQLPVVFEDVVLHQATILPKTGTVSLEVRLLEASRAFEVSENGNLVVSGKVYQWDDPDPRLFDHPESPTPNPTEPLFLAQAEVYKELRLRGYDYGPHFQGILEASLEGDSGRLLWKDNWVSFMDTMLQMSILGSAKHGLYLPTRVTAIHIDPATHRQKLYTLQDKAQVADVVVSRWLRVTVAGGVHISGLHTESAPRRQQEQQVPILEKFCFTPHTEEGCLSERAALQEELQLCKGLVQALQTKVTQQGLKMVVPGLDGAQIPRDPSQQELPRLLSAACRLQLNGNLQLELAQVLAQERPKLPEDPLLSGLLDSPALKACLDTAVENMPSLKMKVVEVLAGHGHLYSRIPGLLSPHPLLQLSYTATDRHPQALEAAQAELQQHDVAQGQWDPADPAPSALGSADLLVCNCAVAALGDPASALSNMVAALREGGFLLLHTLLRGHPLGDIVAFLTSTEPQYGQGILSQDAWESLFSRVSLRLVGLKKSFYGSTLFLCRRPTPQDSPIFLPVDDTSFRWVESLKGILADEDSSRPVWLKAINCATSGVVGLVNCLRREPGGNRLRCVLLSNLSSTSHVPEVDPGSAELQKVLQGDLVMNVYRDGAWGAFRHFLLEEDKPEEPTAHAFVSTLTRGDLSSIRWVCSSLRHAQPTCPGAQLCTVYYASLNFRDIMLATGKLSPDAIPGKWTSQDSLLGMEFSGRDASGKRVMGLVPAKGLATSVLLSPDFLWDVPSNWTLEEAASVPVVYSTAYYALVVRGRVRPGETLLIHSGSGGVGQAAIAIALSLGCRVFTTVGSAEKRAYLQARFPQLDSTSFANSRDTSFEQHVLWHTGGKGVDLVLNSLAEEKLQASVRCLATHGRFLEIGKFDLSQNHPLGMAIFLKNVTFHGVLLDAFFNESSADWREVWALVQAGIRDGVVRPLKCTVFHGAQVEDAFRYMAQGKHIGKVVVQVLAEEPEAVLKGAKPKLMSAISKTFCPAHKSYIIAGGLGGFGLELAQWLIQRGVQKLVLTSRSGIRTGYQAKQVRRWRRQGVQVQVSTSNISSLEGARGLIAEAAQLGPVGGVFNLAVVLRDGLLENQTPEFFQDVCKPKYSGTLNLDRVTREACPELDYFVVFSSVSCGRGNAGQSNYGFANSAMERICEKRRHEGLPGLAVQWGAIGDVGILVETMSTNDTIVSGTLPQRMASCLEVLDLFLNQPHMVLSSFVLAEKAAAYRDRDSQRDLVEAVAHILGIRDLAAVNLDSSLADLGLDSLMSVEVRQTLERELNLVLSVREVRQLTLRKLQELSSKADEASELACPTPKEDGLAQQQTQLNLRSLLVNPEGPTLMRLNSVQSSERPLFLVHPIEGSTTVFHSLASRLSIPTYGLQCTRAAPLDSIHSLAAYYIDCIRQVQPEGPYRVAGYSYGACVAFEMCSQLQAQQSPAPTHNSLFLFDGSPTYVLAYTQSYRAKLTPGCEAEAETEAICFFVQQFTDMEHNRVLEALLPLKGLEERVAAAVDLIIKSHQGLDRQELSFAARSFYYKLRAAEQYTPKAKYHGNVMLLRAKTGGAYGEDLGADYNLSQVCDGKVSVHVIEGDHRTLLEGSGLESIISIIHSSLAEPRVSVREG
Experiment: FAS thioesterase domain inhibitors, dose response, biochemical, kinetic fluorescence intensity (AID 624326);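 further: rate of fluorescence rise from hydrolysis of a fluorogenic O-methyl fluorescein ester substrate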
Assay type: functional
The source made the active and inactive calls.
Measured IC50 values are reported for all entries that follow.
measure: IC50

molecule	measure	experimental value
CCOC(=O)NN=C1c2ccccc2-c2nc3nonc3nc21	IC50	0.859 µM (active)
Cc1ccc(-c2nnc(COC(=O)c3cc(O)nc4ccccc34)o2)cc1	IC50	9.54 µM (active)
CCc1cccc(NC(=O)COC(=O)c2cc([N+](=O)[O-])ccc2N2CCOCC2)c1	IC50	0.393 µM (active)
O=C(COC(=O)c1cc([N+](=O)[O-])ccc1N1CCOCC1)Nc1c(Cl)cccc1Cl	IC50	6.21 µM (active)
CCN(c1ccccc1)S(=O)(=O)c1ccc(NC(=O)c2nc(S(C)(=O)=O)ncc2Cl)cc1	IC50	3.48 µM (active)
Cc1ccc([N+](=O)[O-])cc1NC(=O)CCSc1ccc(Cl)cc1	IC50	7.75 µM (active)
CCOC(=O)[C@]12Cc3ccccc3[C@H]1N(C1CCCCC1)C(=O)c1cc(OC)ccc12	IC50	8.19 µM (active)
CC(C)Oc1ccc(C2CC(=O)N(Nc3ccc([N+](=O)[O-])cc3[N+](=O)[O-])C2=O)cc1 (stereo not given)	IC50	0.846 µM (active)
O=C(COC(=O)c1cc([N+](=O)[O-])ccc1N1CCOCC1)NCc1ccccc1	IC50	0.683 µM (active)
O=C(CCNC(=O)c1ccc([N+](=O)[O-])cc1)NCCc1ccccc1	IC50	11.2 µM (active)

* * *

Target: Apoptotic protease-activating factor 1 (Homo sapiens, UniProt O14727)
Sequence (O14727 whole entry): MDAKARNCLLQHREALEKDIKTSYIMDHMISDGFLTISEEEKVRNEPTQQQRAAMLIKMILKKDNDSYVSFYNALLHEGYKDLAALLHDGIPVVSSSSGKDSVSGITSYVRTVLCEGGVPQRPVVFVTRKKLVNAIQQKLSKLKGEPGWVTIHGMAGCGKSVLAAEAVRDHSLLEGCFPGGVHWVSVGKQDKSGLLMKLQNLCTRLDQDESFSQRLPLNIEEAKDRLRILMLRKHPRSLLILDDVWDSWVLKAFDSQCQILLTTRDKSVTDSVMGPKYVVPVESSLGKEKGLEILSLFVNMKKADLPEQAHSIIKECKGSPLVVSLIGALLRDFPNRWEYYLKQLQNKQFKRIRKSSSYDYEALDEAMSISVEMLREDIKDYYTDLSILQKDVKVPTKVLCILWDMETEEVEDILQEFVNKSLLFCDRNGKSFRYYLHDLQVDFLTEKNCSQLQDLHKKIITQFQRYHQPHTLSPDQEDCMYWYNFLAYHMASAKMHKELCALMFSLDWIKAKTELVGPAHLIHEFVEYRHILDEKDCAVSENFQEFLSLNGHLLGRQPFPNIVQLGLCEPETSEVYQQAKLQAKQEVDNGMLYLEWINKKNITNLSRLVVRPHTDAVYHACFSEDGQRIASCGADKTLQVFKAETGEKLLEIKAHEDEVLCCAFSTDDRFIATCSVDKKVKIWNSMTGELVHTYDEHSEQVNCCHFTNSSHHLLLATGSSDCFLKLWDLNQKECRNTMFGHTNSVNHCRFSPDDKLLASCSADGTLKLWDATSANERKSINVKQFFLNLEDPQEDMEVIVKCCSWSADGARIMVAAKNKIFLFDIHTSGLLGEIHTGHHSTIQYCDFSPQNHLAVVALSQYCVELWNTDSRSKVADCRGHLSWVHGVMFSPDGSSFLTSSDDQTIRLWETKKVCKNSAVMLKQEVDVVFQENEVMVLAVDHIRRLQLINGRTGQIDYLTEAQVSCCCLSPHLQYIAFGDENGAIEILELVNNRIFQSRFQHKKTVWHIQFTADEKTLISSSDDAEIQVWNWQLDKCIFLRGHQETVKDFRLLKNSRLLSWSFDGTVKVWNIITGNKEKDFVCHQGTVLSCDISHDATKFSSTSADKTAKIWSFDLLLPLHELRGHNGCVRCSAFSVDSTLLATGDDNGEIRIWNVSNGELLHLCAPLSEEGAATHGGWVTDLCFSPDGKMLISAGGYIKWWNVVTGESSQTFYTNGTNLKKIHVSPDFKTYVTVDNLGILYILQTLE
Format: functional
The source made the active and inactive calls.
Measured IC50 values are reported for all entries that follow.
measure: IC50

given smiles	measure	experimental value
C#CCOCCOCCOCCNc1nc(N2CCN(C(=O)CCCCCCCCCCNC(=O)Cn3cc(C[C@@H](C)O)nn3)CC2)nc(N2CCN(C(=O)CCCCCCCCCCNC(=O)[C@@H]([C@H](C)CC)n3cc(CCCCCN)nn3)CC2)n1	IC50	38.4 µM (active)
COc1ccc2noc3c2c1C(=O)c1ccccc1-3	IC50	42.5 µM (active)
CCN(CC)CCOC(=O)c1ccc(N/C=C(/C#N)c2nc(-c3ccc4c(c3)OCO4)cs2)cc1	IC50	20.7 µM (active)
Cc1ccc(OCC(=O)N(Cc2nnc(-c3ccccc3Cl)o2)C2CC2)cc1C	IC50	31.9 µM (active)
